Target: Ubiquitin carboxyl-terminal hydrolase 25 (Homo sapiens)
Sequence (Q9UHP3 whole entry): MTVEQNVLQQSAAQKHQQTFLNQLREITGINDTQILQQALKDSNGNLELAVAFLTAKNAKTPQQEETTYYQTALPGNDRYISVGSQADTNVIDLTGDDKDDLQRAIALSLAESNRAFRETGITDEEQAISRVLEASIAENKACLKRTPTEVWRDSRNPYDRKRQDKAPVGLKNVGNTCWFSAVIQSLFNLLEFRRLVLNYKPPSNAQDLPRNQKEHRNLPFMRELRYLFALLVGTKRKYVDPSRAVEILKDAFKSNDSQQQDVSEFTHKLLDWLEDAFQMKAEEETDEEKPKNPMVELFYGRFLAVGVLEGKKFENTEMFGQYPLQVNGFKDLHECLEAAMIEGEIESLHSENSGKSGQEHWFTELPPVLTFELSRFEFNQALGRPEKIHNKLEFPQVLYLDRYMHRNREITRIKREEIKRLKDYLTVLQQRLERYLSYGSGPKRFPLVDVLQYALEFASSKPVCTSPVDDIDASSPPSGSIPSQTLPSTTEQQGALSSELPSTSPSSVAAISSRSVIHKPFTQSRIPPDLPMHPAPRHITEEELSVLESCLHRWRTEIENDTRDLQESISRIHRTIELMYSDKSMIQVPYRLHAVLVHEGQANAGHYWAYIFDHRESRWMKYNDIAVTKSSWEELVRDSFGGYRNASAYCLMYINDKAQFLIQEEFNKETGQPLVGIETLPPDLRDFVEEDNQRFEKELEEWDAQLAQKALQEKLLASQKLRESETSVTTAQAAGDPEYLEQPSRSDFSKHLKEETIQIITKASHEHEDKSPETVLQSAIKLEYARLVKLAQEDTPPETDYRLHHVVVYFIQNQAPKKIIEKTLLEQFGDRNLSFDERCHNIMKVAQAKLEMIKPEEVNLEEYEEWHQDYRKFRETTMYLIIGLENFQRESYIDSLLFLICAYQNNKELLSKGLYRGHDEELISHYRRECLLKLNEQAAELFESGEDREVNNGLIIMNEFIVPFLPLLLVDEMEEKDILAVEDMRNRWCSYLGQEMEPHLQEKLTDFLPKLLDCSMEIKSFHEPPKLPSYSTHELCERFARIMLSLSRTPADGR
Assay: Inhibition of recombinant human His6-tagged USP25 expressed in baculovirus infected Sf21 insect cells using Ub-Rh110 as substrate pretreated for 30 mins followed by substrate addition measured after 45 mins by fluorescence assay
pIC50: −log10 of the molar value.
Record form. Attribute: pIC50. Fill in for each entry.

Cc1cnc2c(N)c(C(=O)NCCc3cc(F)c(N4CCNCC4)cc3F)sc2n1 : 5.00 to 5.70

Could I get pIC50 for every one of these entries?
1. Cc1cnc2c(N)c(C(=O)NC[C@@H](C)c3ccc(N4CC5CCC(C4)N5)c(F)c3)sc2n1
2. Cc1cnc2c(N)c(C(=O)NC[C@H](C)c3ccc(N4CC5CCC(C4)N5)c(F)c3)sc2n1
3. Cc1cnc2c(N)c(C(=O)NCCc3ccc(N4CC5CCC(C4)N5)c(F)c3)sc2n1
4. Cc1cnc2c(N)c(C(=O)NCCc3cc(F)c(N4CC5CCC(C4)N5)cc3F)sc2n1

1. 5.00 to 5.70
2. 5.00 to 5.70
3. > 6.70
4. 5.70 to 6.70

---

Assay: Inhibition of recombinant human His6-tagged USP28-5 (1 to 1077 residues) using Ub-Rh110 as substrate pretreated for 30 mins followed by substrate addition measured after 20 mins by fluorescence assay
Record form. Attribute: IC50. Fill in for each entry.

Cc1cnc2c(N)c(C(=O)NC[C@@H](C)c3ccc(N4CC5CCC(C4)N5)c(F)c3)sc2n1 : 200 to 2000 nM
Cc1cnc2c(N)c(C(=O)NC[C@H](C)c3ccc(N4CC5CCC(C4)N5)c(F)c3)sc2n1 : 200 to 2000 nM
Cc1cnc2c(N)c(C(=O)NCCc3ccc(N4CC5CCC(C4)N5)c(F)c3)sc2n1 : < 200 nM
Cc1cnc2c(N)c(C(=O)NCCc3ccc(N4CC5CCC(C4)N5)c(Cl)c3)sc2n1 : < 200 nM
Cc1cnc2c(N)c(C(=O)NCCc3ccc(N4CCNCC4)cc3)sc2n1 : 200 to 2000 nM

I need IC50 for every entry listed below, if you could help.
1. Cc1cnc2c(N)c(C(=O)NCCc3cc(F)c(N4CCNCC4)cc3F)sc2n1
2. Cc1cnc2c(N)c(C(=O)NCCc3ccc(N4CCNCC4)c(Cl)c3)sc2n1
3. Cc1cnc2c(N)c(C(=O)NCCc3cc(F)c(N4CC5CCC(C4)N5)cc3F)sc2n1

["200 to 2000 nM", "200 to 2000 nM", "< 200 nM"]

Taken from ChEMBL document CHEMBL4130588.
